- Assay Summary: Microsomal (metabolic) stability, mouse liver microsomes
- Condition Description: liver microsomes, pH 7.4
Quantity Kind: half-life at 10 µM

> print(dat)
                                   compound       quantity.kind  recorded.measurement
1  O=S(=O)(NCCN1CCOCC1)c1ccc(NC2CCCCC2)c(NCc2ccccc2)c1  half-life at 10 µM              3.06 min
2  CNCCNS(=O)(=O)c1ccc(NC2CCCCC2)c(NCc2ccccc2)c1.Cl  half-life at 10 µM                27 min

* * *

- Assay Summary: Microsomal (metabolic) stability, human liver microsomes
- Condition Description: human, liver microsomes, pH 7.4
Quantity Kind: CLint scaled at 10 µM (mL/min/kg)

> print(dat)
                                   compound          quantity.kind  recorded.measurement
1  Cl.NCCNS(=O)(=O)c1ccc(NC2CCCCC2)c(NCc2ccccc2)c1 [Compound 38, Hydrochloride]  CLint scaled at 10 µM                   1.3
2  CNCCNS(=O)(=O)c1ccc(NC2CCCCC2)c(NCc2ccccc2)c1.Cl [Compound 37, Hydrochloride]  CLint scaled at 10 µM                   1.7
3  Cl.O=S(=O)(NCCN1CCNCC1)c1ccc(NC2CCCCC2)c(NCc2ccccc2)c1 [Compound 39, Hydrochloride]  CLint scaled at 10 µM                   1.1
4  O=S(=O)(NCCN1CCOCC1)c1ccc(NC2CCCCC2)c(NCc2ccccc2)c1  CLint scaled at 10 µM                  22.6
